molecular target: 5-hydroxytryptamine receptor 2A (Homo sapiens); format: functional, cell-based; further: assay procedure not described here
Sequence (P28223 whole entry): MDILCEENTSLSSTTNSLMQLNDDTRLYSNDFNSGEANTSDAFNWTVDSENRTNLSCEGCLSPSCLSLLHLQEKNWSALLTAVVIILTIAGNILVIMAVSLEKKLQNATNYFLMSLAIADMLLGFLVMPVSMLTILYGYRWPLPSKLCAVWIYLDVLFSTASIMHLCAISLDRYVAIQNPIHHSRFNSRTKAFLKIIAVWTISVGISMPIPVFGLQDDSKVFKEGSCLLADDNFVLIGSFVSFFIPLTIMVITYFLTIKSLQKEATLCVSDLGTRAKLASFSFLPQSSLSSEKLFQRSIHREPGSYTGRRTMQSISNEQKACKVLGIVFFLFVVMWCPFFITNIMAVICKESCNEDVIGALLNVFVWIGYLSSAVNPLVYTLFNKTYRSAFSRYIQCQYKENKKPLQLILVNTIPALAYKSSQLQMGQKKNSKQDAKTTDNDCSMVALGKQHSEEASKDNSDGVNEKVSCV
measured_property: AC50

Specify AC50 for CC(=O)O[C@H](CC(=O)[O-])C[N+](C)(C)C and stop.
> 30 µM

Read off the recorded AC50 for C#C[C@]1(OC(C)=O)CC[C@H]2[C@@H]3CCC4=C/C(=N/O)CC[C@@H]4[C@H]3CC[C@@]21CC [NORGESTIMATE]
> 30 µM

Entry O=C1CN(/N=C/c2ccc(-c3ccc([N+](=O)[O-])cc3)o2)C(O)=N1 needs its AC50 filled in; supply it.
> 10 µM

Tell us which AC50 value is on record for COc1ccc2nc3cc(Cl)ccc3c(Nc3cc(CN4CCCC4)c(O)c(CN4CCCC4)c3)c2n1
> 30 µM

Report AC50, nothing else, for this compound: CC(S)C(=O)NCC(=O)O (stereo not drawn)
> 30 µM

Fill in AC50 for record CC(C(=O)O)c1ccc2c(c1)[nH]c1ccc(Cl)cc12 (stereo not drawn)
> 10 µM

Report AC50 for COCC1=C(C(=O)O)N2C(=O)[C@@H](NC(=O)/C(=N\OC)c3csc(N)n3)[C@H]2SC1
> 30 µM

Look up and state reported AC50 for Clc1ccc2c(N3CCN(CCCN4CCN(c5ccnc6cc(Cl)ccc56)CC4)CC3)ccnc2c1
> 30 µM

----------
molecular target: Delta-type opioid receptor (Homo sapiens); further: assay procedure not described here
Sequence (P41143 whole entry): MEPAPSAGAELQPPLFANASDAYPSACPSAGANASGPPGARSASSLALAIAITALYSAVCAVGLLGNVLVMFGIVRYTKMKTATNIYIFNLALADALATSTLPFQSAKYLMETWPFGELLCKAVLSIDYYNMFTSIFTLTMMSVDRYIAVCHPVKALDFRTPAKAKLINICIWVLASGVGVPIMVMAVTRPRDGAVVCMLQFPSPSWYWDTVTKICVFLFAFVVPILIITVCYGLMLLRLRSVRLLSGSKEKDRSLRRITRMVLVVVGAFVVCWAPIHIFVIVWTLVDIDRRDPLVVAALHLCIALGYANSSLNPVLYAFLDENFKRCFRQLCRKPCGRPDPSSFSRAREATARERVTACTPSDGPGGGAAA
measured_property: AC50

Please give the documented AC50 of COc1cc2c(cc1OC)C(CCc1ccc(Cl)cc1)N(C)CC2 (stereo not drawn)
> 30 µM

Identify the reported AC50 for the following entry. C/N=C(\NC)NCc1ccccc1
> 30 µM

Please give measured AC50 of the following entry: O=C(O)c1ccccc1Nc1cc(Cl)ccc1C(=O)O
> 30 µM

Quickly give me recorded AC50 for Cc1cnc(C(=O)NCCc2ccc(S(=O)(=O)NC(=O)NC3CCCCC3)cc2)cn1 [GLIPIZIDE]
> 10 µM

Determine its reported AC50: CCC[C@H](NC(=O)[C@@H]1[C@H]2CCC[C@H]2CN1C(=O)[C@@H](NC(=O)[C@@H](NC(=O)c1cnccn1)C1CCCCC1)C(C)(C)C)C(=O)C(=O)NC1CC1
> 30 µM

Return reported AC50. Input molecule: CCCCCC(=O)O[C@]1(C(C)=O)CC[C@H]2[C@@H]3CCC4=CC(=O)CC[C@]4(C)[C@H]3CC[C@@]21C [HYDROXYPROGESTERONE CAPROATE]
> 30 µM

Supply measured AC50 of CN(C)CCC[C@@]1(c2ccc(F)cc2)OCc2cc(C#N)ccc21 in your reply.
> 30 µM

Input CCCN(CCC)C(=O)Cc1c(-c2ccc(Cl)cc2)nc2ccc(Cl)cn12 , output reported AC50.
> 30 µM

# return recorded AC50 for entry Cc1onc(-c2ccccc2)c1-c1ccc(S(N)(=O)=O)cc1
> 30 µM

Answer with the recorded AC50 of Cc1cc2cc3c(C)cc(=O)oc3c(C)c2o1 only.
> 30 µM

Please give measured AC50 of the following entry: Nc1ncn([C@H]2C[C@H](O)[C@@H](CO)O2)c(=O)n1
> 30 µM

Quote AC50 reported for OC1(c2ccc(Cl)cc2)c2ccccc2C2=NCCN21 (stereo not drawn) please.
> 30 µM

Identify measured AC50 associated with CC(=O)[C@]1(O)Cc2c(O)c3c(c(O)c2[C@@H](O[C@H]2C[C@H](N)[C@H](O)[C@H](C)O2)C1)C(=O)c1ccccc1C3=O
19 µM

Supply reported AC50 belonging to this molecule: O=C1CCc2cc(OCCCCc3nnnn3C3CCCCC3)ccc2N1
> 30 µM

Give recorded AC50. CC12CC3CC(C)(C1)CC(N)(C3)C2 [MEMANTINE]
> 30 µM

Provide only the value of recorded AC50 for C=C[C@@]1(C)CC(=O)[C@]2(O)[C@@]3(C)[C@@H](O)CCC(C)(C)[C@@H]3[C@H](O)[C@H](OC(C)=O)[C@@]2(C)O1
> 30 µM

Please list AC50 recorded for the molecule CCN(CC)CCNC(=O)c1c(C)[nH]c(/C=C2\C(=O)Nc3ccc(F)cc32)c1C
1.7 µM

For CC(N)C(O)c1ccccc1 (stereo not drawn) , write its AC50.
> 10 µM

For the molecule CC(=O)N[C@@H](CS)C(=O)O , give its reported AC50.
> 30 µM

Please report AC50 for the following molecule: NC1CCN(c2nc3c(cc2F)c(=O)c(C(=O)O)cn3-c2ccc(F)cc2F)C1 (stereo not drawn)
> 30 µM

Given the molecule CCN1CCN(Cc2ccc(Nc3ncc(F)c(-c4cc(F)c5nc(C)n(C(C)C)c5c4)n3)nc2)CC1 , write its reported AC50.
> 30 µM

// fetch AC50 given entry COc1cc(N)c(Cl)cc1C(=O)NC1CCN(Cc2ccccc2)CC1 [CLEBOPRIDE]
> 30 µM

For the molecule C=C1/C(=C\C=C2/CCC[C@]3(C)[C@@H]([C@H](C)/C=C/[C@@H](O)C4CC4)CC[C@@H]23)C[C@@H](O)C[C@@H]1O , give its measured AC50 value.
> 30 µM

Could you please provide reported AC50 for C/C(=C\C(=O)OCCCCCCCCC(=O)O)C[C@@H]1OC[C@H](C[C@@H]2O[C@H]2[C@@H](C)[C@H](C)O)[C@@H](O)[C@H]1O ? Thanks!
> 30 µM

Provide AC50 value for the following molecule: C[C@]12CC[C@@H]3c4ccc(O)cc4C[C@@H](CCCCCCCCC[S+]([O-])CCCC(F)(F)C(F)(F)F)[C@H]3[C@@H]1CC[C@@H]2O (stereo partly drawn)
> 30 µM

Given the molecule CCOC(=O)O[C@]1(C(=O)OCCl)CC[C@H]2[C@@H]3CCC4=CC(=O)C=C[C@]4(C)[C@H]3[C@@H](O)C[C@@]21C [LOTEPREDNOL ETABONATE] , write its reported AC50.
> 30 µM

Supply measured AC50 of C[C@H](Cc1ccc(O)c(O)c1)[C@@H](C)Cc1ccc(O)c(O)c1 in your reply.
> 30 µM

Return value of AC50 for input CC(=O)OCC(=O)[C@@]1(O)[C@H](C)C[C@H]2[C@@H]3CCC4=CC(=O)C=C[C@]4(C)[C@@]3(F)[C@@H](O)C[C@@]21C [DEXAMETHASONE ACETATE] , no commentary.
> 30 µM

Give the reported AC50 for this molecule. NC(=O)CN1CCCC1=O
> 30 µM

Specify AC50 for CC(C)NCC(O)c1ccc(O)c(O)c1 (stereo not drawn) and stop.
> 10 µM

Please report AC50 for the following molecule: Cc1ncc2n1-c1ccc(Cl)cc1C(c1ccccc1F)=NC2
> 30 µM

Give AC50 for Cc1noc(NS(=O)(=O)c2ccc(N)cc2)c1C
> 30 µM

Write down AC50 measured for item O=C1CN=C(c2ccccn2)c2cc(Br)ccc2N1
> 30 µM

----------
molecular target: UniProt:P06401
Sequence (P06401 whole entry): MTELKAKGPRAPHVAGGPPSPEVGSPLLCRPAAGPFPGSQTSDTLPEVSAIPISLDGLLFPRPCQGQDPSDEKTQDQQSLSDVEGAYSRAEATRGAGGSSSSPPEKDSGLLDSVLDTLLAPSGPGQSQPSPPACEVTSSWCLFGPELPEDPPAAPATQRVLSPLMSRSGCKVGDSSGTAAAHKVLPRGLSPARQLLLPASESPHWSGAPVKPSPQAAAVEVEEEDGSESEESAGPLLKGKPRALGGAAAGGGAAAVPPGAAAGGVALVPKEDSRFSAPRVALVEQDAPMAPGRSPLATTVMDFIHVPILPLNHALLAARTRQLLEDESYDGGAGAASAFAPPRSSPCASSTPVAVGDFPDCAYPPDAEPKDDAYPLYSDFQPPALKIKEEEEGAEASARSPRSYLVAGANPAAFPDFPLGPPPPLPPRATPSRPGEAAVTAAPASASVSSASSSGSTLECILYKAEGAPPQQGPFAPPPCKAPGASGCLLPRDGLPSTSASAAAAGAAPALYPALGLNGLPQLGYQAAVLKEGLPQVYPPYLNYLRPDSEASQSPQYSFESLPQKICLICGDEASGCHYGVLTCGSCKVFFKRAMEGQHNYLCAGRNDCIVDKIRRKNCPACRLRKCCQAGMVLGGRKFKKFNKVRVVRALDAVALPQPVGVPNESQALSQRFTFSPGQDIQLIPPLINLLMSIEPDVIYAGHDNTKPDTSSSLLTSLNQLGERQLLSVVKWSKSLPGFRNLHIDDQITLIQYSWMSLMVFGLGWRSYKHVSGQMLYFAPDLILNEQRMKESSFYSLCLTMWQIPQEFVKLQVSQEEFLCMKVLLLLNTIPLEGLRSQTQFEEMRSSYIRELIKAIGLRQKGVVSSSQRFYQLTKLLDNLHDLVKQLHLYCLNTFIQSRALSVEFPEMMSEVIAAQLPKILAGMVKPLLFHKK
measured_property: AC50

Retrieve AC50 measured for CCOC(=O)C1=C(C)NC(C)=C(C(=O)OC)C1c1cccc([N+](=O)[O-])c1 (centres undefined) and print it.
> 30 µM

Item CCCCC(=O)O[C@]1(C(=O)CO)[C@@H](C)C[C@H]2[C@@H]3CCC4=CC(=O)C=C[C@]4(C)[C@@]3(F)[C@@H](O)C[C@@]21C [BETAMETHASONE VALERATE] : provide AC50
0.13 µM

Quick one: give measured AC50 for OC1(c2ccc(Cl)cc2)c2ccccc2C2=NCCN21 (centres undefined)
> 30 µM

Give the value of AC50 reported for the following: Nc1cc(-c2ccncc2)c[nH]c1=O
> 20 µM

Given the molecule CCCC(CCC)C(=O)O , write its reported AC50.
> 30 µM

Specify reported AC50 for the molecule shown: CC(C)Cc1ccc(C(C)C(=O)O)cc1 (centres undefined)
> 30 µM

Identify AC50 associated with the molecule CC(N)C(O)c1ccccc1 (centres undefined)
> 30 µM

Give the measured AC50 for CCC[C@H](NC(=O)[C@@H]1[C@H]2CCC[C@H]2CN1C(=O)[C@@H](NC(=O)[C@@H](NC(=O)c1cnccn1)C1CCCCC1)C(C)(C)C)C(=O)C(=O)NC1CC1
> 30 µM

Read the entry C[C@H]1c2cccc(O)c2C(=O)C2=C(O)[C@]3(O)C(=O)C(C(N)=O)=C(O)[C@@H](N(C)C)[C@@H]3[C@@H](O)[C@@H]21 and write its reported AC50.
> 30 µM

----------
Kindly state AC50 for each of the entries shown.
Target: Androgen receptor (Homo sapiens, UniProt P10275); further: assay procedure not described here
Sequence (P10275 whole entry): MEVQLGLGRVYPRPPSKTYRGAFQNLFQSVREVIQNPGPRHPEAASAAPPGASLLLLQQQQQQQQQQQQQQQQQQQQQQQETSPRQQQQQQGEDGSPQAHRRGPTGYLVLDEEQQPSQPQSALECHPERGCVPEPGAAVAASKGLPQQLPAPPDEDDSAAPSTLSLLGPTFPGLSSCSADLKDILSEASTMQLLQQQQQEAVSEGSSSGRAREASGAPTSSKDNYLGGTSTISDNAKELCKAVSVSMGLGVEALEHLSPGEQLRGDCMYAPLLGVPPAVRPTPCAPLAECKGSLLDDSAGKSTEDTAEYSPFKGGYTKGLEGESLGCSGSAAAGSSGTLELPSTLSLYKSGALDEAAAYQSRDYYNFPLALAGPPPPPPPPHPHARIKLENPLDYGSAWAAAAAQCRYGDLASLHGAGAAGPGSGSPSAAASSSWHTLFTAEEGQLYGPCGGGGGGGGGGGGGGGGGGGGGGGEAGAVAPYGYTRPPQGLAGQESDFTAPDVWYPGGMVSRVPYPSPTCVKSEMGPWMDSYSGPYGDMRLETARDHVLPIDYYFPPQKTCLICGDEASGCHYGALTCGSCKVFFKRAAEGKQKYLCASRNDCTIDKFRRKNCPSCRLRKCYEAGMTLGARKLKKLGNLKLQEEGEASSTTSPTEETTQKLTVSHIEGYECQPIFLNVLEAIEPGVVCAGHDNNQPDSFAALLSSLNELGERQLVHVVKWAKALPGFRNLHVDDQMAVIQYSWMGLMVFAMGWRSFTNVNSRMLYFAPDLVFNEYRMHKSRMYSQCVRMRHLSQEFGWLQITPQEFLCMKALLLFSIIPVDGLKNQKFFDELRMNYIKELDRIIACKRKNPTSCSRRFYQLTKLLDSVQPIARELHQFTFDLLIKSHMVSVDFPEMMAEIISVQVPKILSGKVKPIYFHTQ

Provide AC50 value for the following compound: CC(=O)O[C@]1(C(C)=O)CC[C@H]2[C@@H]3C=C(C)C4=CC(=O)CC[C@@H]4[C@H]3CC[C@@]21C [NOMEGESTROL ACETATE]
0.02 µM

Please report AC50 for the following compound: CC(C)OC(=O)CCC/C=C\C[C@@H]1[C@@H](/C=C/C(F)(F)COc2ccccc2)[C@H](O)C[C@@H]1O
> 30 µM

Quickly give me recorded AC50 for C/C=C/C/C=C/CCC(=O)[C@H]1O[C@H]1C(N)=O
> 30 µM

Please indicate AC50 recorded for OC[C@H]1O[C@@H](c2ccc(Cl)c(Cc3ccc(O[C@H]4CCOC4)cc3)c2)[C@H](O)[C@@H](O)[C@@H]1O
> 30 µM

Recall and state the measured AC50 for C[C@H](Cc1cc2c(c(C(N)=O)c1)N(CCCO)CC2)NCCOc1ccccc1OCC(F)(F)F .
> 30 µM

Identify AC50 associated with the compound N#Cc1ccc2c(c1)N(CCCN1CCC(O)CC1)c1ccccc1S2
> 30 µM

Fill in reported AC50 for this entry: CC(C)(O)CNc1nc(Nc2ccnc(C(F)(F)F)c2)nc(-c2cccc(C(F)(F)F)n2)n1
> 30 µM

Name the recorded AC50 of the compound listed here: NCC(CC(=O)O)c1ccccc1 (configuration not stated)
> 30 µM

Given c1ccc2c(c1)CCc1ccccc1N2C1CN2CCC1CC2 (configuration not stated) , respond with its AC50.
> 30 µM

Look up and report measured AC50 for this entry: c1ccc(C2(c3ccccc3)CC2C2=NCCN2)cc1 (configuration not stated)
22.6 µM

Output AC50 of FC(F)(F)c1ccc(CNc2ccc(Cc3c[nH]c4ncc(Cl)cc34)cn2)cn1
> 30 µM

Note down AC50 recorded for CCCc1nc(C(C)(C)O)c(C(=O)O)n1Cc1ccc(-c2ccccc2-c2nnn[nH]2)cc1
> 30 µM

Indicate its recorded AC50; the compound in question is COc1cc(N2CCC(N3CCN(C)CC3)CC2)ccc1Nc1ncc(Cl)c(Nc2ccccc2P(C)(C)=O)n1
> 30 µM

Name the recorded AC50 of the compound listed here: COc1cc2nccc(Oc3ccc(NC(=O)C4(C(=O)Nc5ccc(F)cc5)CC4)cc3)c2cc1OC [CABOZANTINIB]
> 30 µM

Item CC(CN1CC(=O)NC(=O)C1)N1CC(=O)NC(=O)C1 (configuration not stated) : provide AC50
> 30 µM

Tell me its AC50 given OC[C@H]1O[C@@H](c2ccc(F)c(Cc3cc4ccccc4s3)c2)[C@H](O)[C@@H](O)[C@@H]1O as the entry.
> 30 µM

Identify AC50 associated with the compound CC[C@H](c1ccc(O)cc1)[C@@H](CC)c1ccc(O)cc1
6.95 µM

Origin of the recorded values: ChEMBL document CHEMBL5291721
